- measurementNotes: NCI Yeast Anticancer Drug Screen. Data for the mlh1 rad18 strain (AID 175)
- reportedConditions: S. cerevisiae mlh1 rad18 strain growth inhibition; at 50.0 µM; stronger effect = higher value
The panel holds about 79,000 compounds, 15% with a hit somewhere; the sample as a whole holds those more often.
Catalogue of growth inhibition values
readoutLabel: growth inhibition (%)

[[record]]
compound = "CC(=O)OCC12CC(O)C(C)=CC1OC1C(O)C(OC(C)=O)C2(C)C12CO2 (stereo not drawn)"
readoutlabel = "growth inhibition"
resultunit = "%"
value = 92.1

[[record]]
compound = "COc1c[c]([Hg][O]C(C)=O)c(OC)c(NC(=O)CC(C)=O)[c]1[Hg][O]C(C)=O"
readoutlabel = "growth inhibition"
resultunit = "%"
value = 88.6

[[record]]
compound = "C=Cc1cc(OC)c2c(c1)c(=O)oc1c2cc(OC)c2c(O)ccc(C3OC(C(C)O)C(O)C3O)c21 (stereo not drawn)"
readoutlabel = "growth inhibition"
resultunit = "%"
value = 89.3

